- Assay Name: Plasma concentration in rats after subcutaneous administration (HPLC)
- Test Settings: rat, plasma, sc, 5 mg/kg
Endpoint: concentration at 1 h (ng/mL)
Numbers only, in ng/mL.

Compound	Numeric Value
N=C(N)c1cccc(CC(NS(=O)(=O)c2ccc3ccccc3c2)C(=O)N2CCCCC2C(=O)O)c1 (racemic)	568
N=C(N)c1cccc(CC(NS(=O)(=O)c2ccc3ccccc3c2)C(=O)N2Cc3ccccc3CC2C(=O)O)c1 (racemic)	79
N=C(N)c1cccc(CC(NS(=O)(=O)c2ccc3ccccc3c2)C(=O)N2CCC(C(=O)O)CC2)c1 (racemic)	834
N=C(NO)c1cccc(CC(NS(=O)(=O)c2ccc3ccccc3c2)C(=O)N2Cc3ccccc3CC2C(=O)O)c1 (racemic) [Compound 190, hydroiodide]	492

Field: next compound
Lab book: concentration at 1 h of NCc1cccc(CC(NS(=O)(=O)c2ccc3ccccc3c2)C(=O)N2CCC(C(=O)O)CC2)c1 (racemic) noted as 558

====

So I've got a bunch of compounds here, and I need their pKi values.
- Tgt: factor Xa (Bos taurus)
- Sequence (P00743 234-492 limits assumed): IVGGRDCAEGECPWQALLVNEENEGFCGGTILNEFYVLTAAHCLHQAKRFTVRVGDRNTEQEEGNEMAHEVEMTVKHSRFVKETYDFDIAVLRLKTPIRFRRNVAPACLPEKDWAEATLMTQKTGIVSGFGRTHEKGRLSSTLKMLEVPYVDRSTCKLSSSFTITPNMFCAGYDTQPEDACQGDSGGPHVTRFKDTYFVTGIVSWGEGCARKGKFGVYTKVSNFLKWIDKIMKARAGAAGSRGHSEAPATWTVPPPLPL
- Sequence (P00743 41-180 partner limits assumed): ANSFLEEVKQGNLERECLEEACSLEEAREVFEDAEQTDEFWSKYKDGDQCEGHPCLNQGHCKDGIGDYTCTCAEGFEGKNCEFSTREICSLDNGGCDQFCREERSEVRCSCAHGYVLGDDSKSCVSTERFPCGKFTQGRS
- Assay Name: Inhibition of factor Xa (dissociation constant Ki)
- Type: biochemical
- Test Settings: Tables 19-25; read-out: Ki, Factor Xa
Counter-ions that a name gives are not always drawn.
Answers are plain numbers, as −log10 of the molar value.

Reference set, count: 3
Compound	pKi
COC(=O)CNC(=O)C1CCCCN1C(=O)C(Cc1cccc(C(=N)N)c1)NS(=O)(=O)c1ccc2ccccc2c1 (racemic) [Compound 117, hydrochloride]	4.42
Nc1cccc(CC(NS(=O)(=O)c2ccc3ccccc3c2)C(=O)N2CCCCC2C(=O)O)c1 (racemic) [Compound 204]	3.35
CC1CCN(C(=O)C(Cc2cccc(CN)c2)NS(=O)(=O)c2ccc3ccccc3c2)CC1 (racemic) [Compound 182]	3.30

List the reported pKi of each compound below.
1. CC1CCN(C(=O)C(Cc2cccc(C(=N)N)c2)NS(=O)(=O)c2ccc3ccccc3c2)C(C(=O)O)C1 (racemic) [Compound 86]
2. NCc1cccc(CC(NS(=O)(=O)c2ccc3ccccc3c2)C(=O)N2CCCCC2C(=O)O)c1 (racemic) [Compound 185]
3. CC1CCN(C(=O)C(Cc2cccc(C(=N)N)c2)NS(=O)(=O)c2cccc3cccnc23)CC1 (racemic) [Compound 171, hydroiodide]
4. COC(=O)[C@H]1CCCN1C(=O)[C@H](Cc1cccc(C(=N)N)c1)NS(=O)(=O)c1ccc2ccccc2c1 [Compound 124, hydrochloride]
5. COC(=O)C(Cc1cccc(C(=N)N)c1)NS(=O)(=O)c1ccc2ccccc2c1 (racemic) [Compound 7]
6. N=C(N)Nc1cccc(CC(NS(=O)(=O)c2ccc3ccccc3c2)C(=O)N2CCCCC2)c1 (racemic) [Compound 207, hydrochloride]
7. CC1CCN(C(=O)C(Cc2cccc(N)c2)NS(=O)(=O)c2ccc3ccccc3c2)CC1 (racemic) [Compound 203]

Outgoing:
4.02
3.85
3.74
3.98
5.60
3.97
3.68

List the reported pKi of each compound below.
1. N=C(N)c1cccc(CC(NS(=O)(=O)c2ccc3ccccc3c2)C(=O)N2Cc3ccccc3CC2C(=O)O)c1 (racemic) [Compound 134]
2. N=C(N)c1cccc(CC(NS(=O)(=O)c2ccc3ccccc3c2)C(=O)N2CC3CCCCC3CC2C(=O)O)c1 (racemic) [Compound 151, hydrochloride]
3. N=C(NO)c1cccc(CC(NS(=O)(=O)c2ccc3ccccc3c2)C(=O)N2CCCCC2C(=O)O)c1 (racemic) [Compound 188, hydroiodide]

Outgoing:
4.38
4.27
3.39

Values from patent US5518735A
